B1: Hairpin Ribozyme (parent)
chain: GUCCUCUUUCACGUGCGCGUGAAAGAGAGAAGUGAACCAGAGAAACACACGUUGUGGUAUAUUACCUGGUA

- Variants of: B1
- procedure.details: self-cleavage, relative activity (ratio to wild type); higher = more cleavage; co-transcriptional
metric.name: self-cleavage

> print(dat)
    mutation.code  endpoint.result
 1      U67G U70C            0.588
 2      G29C G54C           0.0908
 3       U2G A22G            0.264
 4      A39C U63C            0.122
 5      G19U U53G            0.772
 6      C18A A71G             1.14
 7       C6G C66G            0.166
 8      A24G C37A            0.345
 9       C4A A22C            0.131
10      A28U A59U            0.185
11      G29U A59U            0.104
12      A22C G42U            0.239
13      U60C U70G             1.03
14       G1U A43U            0.142
15      G13A U70C            0.615
16       U5A G57U            0.102
17      A39U U62A            0.126
18      A11C C18G            0.775
19       C3U G34C             1.03
20      G42U A61U            0.283
21      A11G G51U            0.713
22      A44U A49C           0.0643
23      G42U G57C           0.0657
24      U14A A36C            0.502
25      U63G C66U            0.109
26      G15C C16U             1.29
27      A23G C50U             0.43
28      A41G G56A            0.255
29       U2A G17C             0.22
30      G13C A26U            0.406
31      G15C C65U            0.352
32      G17C A30C            0.099
33       U8G G32A           0.0907
34      A30C G69A           0.0574
35      U60A C65U            0.301
36       U8G A31C             0.13
37      A41U A43U            0.187
38      A61U A71U            0.171
39      U53G C66G            0.152
40      C38A A49U           0.0928
41      C66A U70G            0.176
42      G21U G34A             1.01
43      G21C A45U            0.154
44      G13A G57U            0.205
45      G21U G68U             0.32
46      G27U G68C            0.102
47       U9A C38G            0.145
